Quick reference: melting point of the listed items.

Worked cases, answers included:
molecule | melting point
CC(C)C(C)C(CN)c1nnn[nH]1 (stereo not shown) | > 250 °C (dec.)
Cl.NCC1(c2noc(=O)[nH]2)CC12CCCC2 (stereo not shown) | 206 to 208 °C
CC(C)CC1CC1(CN)c1noc(=O)[nH]1.Cl (stereo not shown) | 181 to 182 °C

For the next question, use this molecule.
Entry CC(C)C1CC1(CN)c1nnn[nH]1 (stereo not shown) — recorded melting point = > 250 °C (dec.)

----------
Quick reference: melting point of the listed items.

Entry CC(C)C1CC1(CN)C(=O)O.Cl (centres unmarked) — recorded melting point = 245 to 246 °C

----------
Quick reference: melting point of the listed items.

compound | quantity | result
CC(CC1CCCCC1)C(CN)c1nnn[nH]1 (stereo not shown) | melting point | 216 °C (dec.)
Cl.NCC1(c2noc(=O)[nH]2)CC12CCCCC2 (stereo not shown) | melting point | 179 to 181 °C (dec.)
CC(Cc1cccc(C(F)(F)F)c1)C(CN)c1nnn[nH]1 (stereo not shown) | melting point | 163 °C (dec.)
CC(C)CC1CC1(CN)C(=O)O.Cl (stereo not shown) | melting point | 254 to 255 °C
CC(Cc1ccc(F)cc1)C(CN)c1nnn[nH]1 (stereo not shown) [Example 26] | melting point | 186 °C (dec.)
CC(C)C1CC1(CN)c1noc(=O)[nH]1.Cl (stereo not shown) | melting point | 178 to 179 °C
CC(CCc1ccccc1)C(CN)c1nnn[nH]1 (stereo not shown) | melting point | 152 °C (dec.)
CCC(C(C)C)C(CN)c1nnn[nH]1 (stereo not shown) | melting point | 205 °C (dec.)

Entry CC(CC1CCCC1)C(CN)c1nnn[nH]1 (stereo not shown) — recorded melting point = 194 °C (dec.)

Entry CCC(CC)C1CC1(CN)c1nnn[nH]1 (stereo not shown) — recorded melting point = > 250 °C (dec.)

Entry CC(C)CCC[C@@H](C)CCC(CN)c1nnn[nH]1 (stereo partly shown) — recorded melting point = 185 °C (dec.)

Entry NCC(CC1CCCCC1)c1nnn[nH]1 (stereo not shown) — recorded melting point = > 250 °C (dec.)

Entry NCC1(C(=O)O)CC12CCCC2 (stereo not shown) — recorded melting point = 231 to 235 °C (dec.)

Entry source: patent US7250433B2
